Test system: Escherichia coli TOP10
Assay: shrunken log2 fold change of peptide-encoding DNA abundance (4.5 h post-induction vs induction); higher = less antimicrobial activity (less host growth inhibition)
Settings: time post-induction: 4.5 h; library: site-saturation at positions 5, 18, 19, 20
Use Y when the recorded shrunken log2 fold change is no lower than -0.06; use N when it is lower.

As a guide, the following entries are already answered.
RRIRDRPPRLPRPRPRPPPVPRP | Y
RRIRERPPRLPRPRPRPSWYPRP | N
RRIRWRPPRLPRPRPRPWHPPRP | Y
RRIRTRPPRLPRPRPRPYIYPRP | N
RRIRYRPPRLPRPRPRPHADPRP | Y

### Prompt Form field: shrunken log2 fold change at least -0.06? Entry: RRIRSRPPRLPRPRPRPFIEPRP
### Response N

====

Tested on: Escherichia coli TOP10
Test: shrunken log2 fold change of peptide-encoding DNA abundance (4.5 h post-induction vs induction); higher = less antimicrobial activity (less host growth inhibition)
Conditions: time post-induction: 4.5 h; library: site-saturation at positions 5, 18, 19, 20
measured.quantity: shrunken log2 fold change
Answer using only a numeral; do not append any unit.

Consider the following illustrative entries.
RRIRQRPPRLPRPRPRPCQTPRP | 0.00707
RRIRFRPPRLPRPRPRPKALPRP | 0.191
RRIRARPPRLPRPRPRPSRFPRP | 0.125

### Prompt For RRIRNRPPRLPRPRPRPMNVPRP , write its shrunken log2 fold change.
### Response -0.00101

====

Test system: Escherichia coli TOP10;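 further: peptides expressed intracellularly from a pBAD plasmid library in pooled LB shake-flask culture, induced with 0.3% L-arabinose, DNA abundance read by NGS, three biological replicates, DESeq2 with apeglm shrinkage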
Assay: shrunken log2 fold change of peptide-encoding DNA abundance (4.5 h post-induction vs induction); higher = less antimicrobial activity (less host growth inhibition)
Settings: time post-induction: 4.5 h; library: site-saturation at positions 5, 18, 19, 20
measured.quantity: shrunken log2 fold change
Answer using only a numeral; do not append any unit.

Consider the following illustrative entries.
RRIRMRPPRLPRPRPRPPRIPRP | 0.226
RRIRQRPPRLPRPRPRPPLMPRP | 0.179
RRIRCRPPRLPRPRPRPCTFPRP | -0.856
RRIRLRPPRLPRPRPRPERQPRP | 0.0746
RRIRVRPPRLPRPRPRPLFAPRP | 0.477

### Prompt For RRIRVRPPRLPRPRPRPKYEPRP , write its shrunken log2 fold change.
### Response 0.0383

### Prompt For RRIRGRPPRLPRPRPRPWGGPRP , write its shrunken log2 fold change.
### Response 0.808

### Prompt For RRIRLRPPRLPRPRPRPNGIPRP , write its shrunken log2 fold change.
### Response -0.00731

### Prompt For RRIRRRPPRLPRPRPRPAPLPRP , write its shrunken log2 fold change.
### Response 0.857

### Prompt For RRIRIRPPRLPRPRPRPFLMPRP , write its shrunken log2 fold change.
### Response -0.314

### Prompt For RRIRERPPRLPRPRPRPRFMPRP , write its shrunken log2 fold change.
### Response -0.0944

### Prompt For RRIRVRPPRLPRPRPRPTHEPRP , write its shrunken log2 fold change.
### Response 0.256

### Prompt For RRIRHRPPRLPRPRPRPPIWPRP , write its shrunken log2 fold change.
### Response 0.324

### Prompt For RRIRWRPPRLPRPRPRPTKPPRP , write its shrunken log2 fold change.
### Response 0.184

### Prompt For RRIRKRPPRLPRPRPRPRHLPRP , write its shrunken log2 fold change.
### Response 0.218
